Assayed target: Gal(b1-4)GlcNAc(b1-3)Gal(b1-4)GlcNAc
Experiment: glycan array binding signal (z-score within array); higher = stronger binding
Setup conditions: glycan notation: IUPAC condensed, linker removed
Shown is part of a subset that was picked to be rich in the strongest signals.

Binder | glycan array binding signal (z-score)
Gal 2 (Canis lupus) (protein) MSGKFEVMNMDMKLGGTLKIKGKIAGDADGFVINLGQGSDKLNLHFNPRFHESVIVCNSRNWGQEQRDKHMCFSPGSEVKFTVTFENDGFKVKLPDGHQLTFPNRLGHSHLSYLGVQGGLKVSSFKIE | -0.157
XTP3-B-MRH2 (Homo sapiens), Q96DZ1 (protein) EFLSGSYCFRGGVGWWKYEFCYGKHVHQYHEDKDSGKTSVVVGTWNQEEHIEWAKKNTARAYHLQDDGTQTVRMVSHFYGNGDICDITDKPRQVTVKLKCKESDSPHAVTVYMLEPHSCQYILGVESPVICKILDTA | 0.386
DC-ASGPR S+GEE (Homo sapiens) (protein) MTRTYENFQYLENKVKVQGFKNGPLPLQSLLQRLRSGPCHLLLSLGLGLLLLVIICVVGFQNSKFQRDLVTLRTDFSNFTSNTVAEIQALTSQGSSLEETIASLKAEVEGFKQERQAVHSEMLLRVQQLVQDLKKLTCQVATINNNGEEASTEGTCCPVNWVEHQDSCYWFSHSGMSWAEAEKYCQLKNAHLVVINSREEQNFVQKYLGSAYTWMGLSDPEGAWKWVDGTDYATGFQNWKPGQPDDWQGHGLGGGEDCAHFHPDGRWNDDVCQRPYHWVCEAGLGQTSQESH | -0.268
MGL (Homo sapiens), Q8IUN9 (protein) MTRTYENFQYLENKVKVQGFKNGPLPLQSLLQRLCSGPCHLLLSLGLGLLLLVIICVVGFQNSKFQRDLVTLRTDFSNFTSNTVAEIQALTSQGSSLEETIASLKAEVEGFKQERQAGVSELQEHTTQKAHLGHCPHCPSVCVPVHSEMLLRVQQLVQDLKKLTCQVATLNNNASTEGTCCPVNWVEHQDSCYWFSHSGMSWAEAEKYCQLKNAHLVVINSREEQNFVQKYLGSAYTWMGLSDPEGAWKWVDGTDYATGFQNWKPGQPDDWQGHGLGGGEDCAHFHPDGRWNDDVCQRPYHWVCEAGLGQTSQESH | -0.242
LgFlo1 (Saccharomyces pastorianus), B3IUA8 (protein) SGSTQACLPVGSRKNGMNVNFYKYSLQDSTTYSDPQYMAYKYSDTKKLGSVSGQTHLSIYYGPNTAFWNTASWSSDLFGFYTTPTNVTVEMTGYFLPPQTGSYTFKFATVDDSAILSVGGSIAFECCAQEQPPITSTDFTINGIKPWDAATPTDIKGSTYMYAGYYYPIKIVYSNAKALARLPVSVVLPDGTEVNDDFEGYVYSFDDDLSQSNCTIPDPSKHTTS | -0.291
BTL (Bryothamnion triquetrum) (protein) ADPICGSSGYSCTTPAILTPKSPGSFPSGYSKVIVTGVGGSYSVYIHRPDGFKVYKASEGGCASFGSYSGGGNSEVGKYGSGGTVVAVACK | -0.27
pTFF2 (Sus scrofa), P01359 (protein) KPAACRCSRQDPKNRVNCGFPGITSDQCFTSGCCFDSQVPGVPWCFKPLPAQESEECVMEVSARKNCGYPGISPEDCAARNCCFSDTIPEVPWCFFPMSVEACHY | -0.47
EUL D1A second (Oryza sativa) (protein) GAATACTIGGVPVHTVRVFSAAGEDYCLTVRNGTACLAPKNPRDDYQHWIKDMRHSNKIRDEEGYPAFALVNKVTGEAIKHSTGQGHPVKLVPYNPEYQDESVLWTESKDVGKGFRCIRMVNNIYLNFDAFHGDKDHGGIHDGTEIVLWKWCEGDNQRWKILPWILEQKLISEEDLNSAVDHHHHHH | -0.532
Tachylectin-2 (Tachypleus tridentatus), TAL2_TACTR (protein) VGGESMLRGVYQDKFYQGTYPQNKNDNWLARATLIGKGGWSNFKFLFLSPGGELYGVLNDKIYKGTPPTHDNDNWMGRAKKIGNGGWNQFQFLFFDPNGYLYAVSKDKLYKASPPQSDTDNWIARATEIGSGGWSGFKFLFFHPNGYLYAVHGQQFYKALPPVSNQDNWLARATKIGQGGWDTFKFLFFSSVGTLFGVQGGKFYEDYPPSYAHDNWLARAKLIGNGGWDDFRFLFF | -0.367
HHL-2 (Homo sapiens), P07307 (protein) MAKDFQDIQQLSSEENDHPFHQGEGPGTRRLNPRRGNPFLKGPPPAQPLAQRLCSMVCFSLLALSFNILLLVVICVTGSQSEGHRGAQLQAELRSLKEAFSNFSSSTLTEVQAISTHGGSVGDKITSLGAKLEKQQQDLKADHDALLFHLKHFPVDLRFVACQMELLHSNGSQRTCCPVNWVEHQGSCYWFSHSGKAWAEAEKYCQLENAHLVVINSWEEQKFIVQHTNPFNTWIGLTDSDGSWKWVDGTDYRHNYKNWAVTQPDNWHGHELGGSEDCVEVQPDGRWNDDFCLQVYRWVCEKRRNATGEVA | -0.474
SJA (Sophora japonica) (protein) FLGLFNSGGYSSSYQIVAVEFDTYINEWDPKTRHIGIDINSINSTKTVTWGWENGEVAIVLISYKAATETLTVSLTYPSSQTSYILSAAVDLKSILPEWVRIGF | -0.148
CVNH0 (Neurospora crassa), Q7S6U4 (protein) GSHIGPYMSFHVTAEDARIEVRDNRTILFARLRREDGEWNDASYELDQIIGNNDGHFQWGGQNFTETAEDIRFHPKEGAAEQPILRARLRDCNGEFHDRDVNLTEIVENVNGEFQAKF | -0.427
Clec18A (Homo sapiens) (protein) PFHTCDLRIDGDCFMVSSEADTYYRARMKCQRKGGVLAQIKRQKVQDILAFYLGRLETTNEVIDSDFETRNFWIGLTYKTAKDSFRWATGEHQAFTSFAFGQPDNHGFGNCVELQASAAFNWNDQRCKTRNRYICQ | 3.23
